Recorded values, source patent US7659299B2.

Target: SAP (Homo sapiens, UniProt P02743)
Sequence (P02743 20-223): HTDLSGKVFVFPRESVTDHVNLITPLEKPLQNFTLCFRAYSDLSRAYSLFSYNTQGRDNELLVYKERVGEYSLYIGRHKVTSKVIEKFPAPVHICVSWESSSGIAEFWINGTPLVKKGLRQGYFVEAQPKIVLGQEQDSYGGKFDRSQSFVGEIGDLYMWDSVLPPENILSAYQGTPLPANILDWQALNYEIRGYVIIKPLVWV
Assay: Inhibition of binding of 125I radiolabelled SAP to influenza virus immobilized in microtitre plates
Parameters: 5 μl of radiolabelled SAP in TN; from tissue
Conditions: compound 2 μM; read-out: Percent inhibition of binding of radiolabelled SAP to immobilized influenza virus

| Compound | inhibition at 2 µM |
| --- | --- |
| O=C(O)[C@H]1CCCN1C(=O)COc1ccccc1OCC(=O)N1CCC[C@@H]1C(=O)O | 68% |
| NCCOP(=O)(O)O [Phosphoethanolamine, reference compound] | 8% |
| O=C(O)[C@H]1CCCN1C(=O)[C@H]1CC[C@@H](C(=O)N2CCC[C@@H]2C(=O)O)CC1 | 76% |
| C[C@H](CS)C(=O)N1CCC[C@@H]1C(=O)O | 30% |

====

Target: SAP (Homo sapiens, UniProt P02743)
Test: Inhibition of binding of 125I radiolabelled SAP to Neisseria meningitidis immobilized in microtitre plates
Design: 5 μl of radiolabelled SAP in TN; from tissue
Settings: compound 200 nM; read-out: Percent inhibition of binding of radiolabelled SAP to immobilized Neisseria meningitidis
Test Readout: inhibition at 0.2 µM (%)

| Compound | Measurement |
| --- | --- |
| O=C(O)[C@H]1CCCN1C(=O)CCCCC(=O)N1CCC[C@@H]1C(=O)O [Ro-63-8695] | 5 |
| C[C@H](CS)C(=O)N1CCC[C@@H]1C(=O)O [Ro-15-3479] | 3 |
| O=C(O)[C@H]1CCCN1C(=O)Cc1cc(O)c(CC(=O)N2CCC[C@@H]2C(=O)O)cc1O [Ro-64-4383] | 1 |
| O=C(O)[C@H]1CCCN1C(=O)Cc1ccc(CC(=O)N2CCC[C@@H]2C(=O)O)cc1 [Ro-63-7777] | 7 |
| O=C(O)[C@H]1CCCN1C(=O)Cc1ccc(CC(=O)N2CCC[C@@H]2C(=O)O)c2ccccc12 [Ro-64-5607] | 13 |
| O=C(O)[C@H]1CCCN1C(=O)[C@H]1CC[C@@H](C(=O)N2CCC[C@@H]2C(=O)O)CC1 [Ro-64-2600] | 31 |
| COc1cccc(OCC(=O)N2CCC[C@@H]2C(=O)O)c1OCC(=O)N1CCC[C@@H]1C(=O)O [Ro-64-2845] | 19 |
| O=C(O)[C@H]1CCCN1C(=O)COc1ccccc1OCC(=O)N1CCC[C@@H]1C(=O)O [Ro-63-8593] | 18 |
| O=C(O)[C@H]1CCCN1C(=O)COc1cccc2c(OCC(=O)N3CCC[C@@H]3C(=O)O)cccc12 [Ro-64-5445] | 30 |
| C[C@H](CSSC[C@@H](C)C(=O)N1CCC[C@@H]1C(=O)O)C(=O)N1CCC[C@@H]1C(=O)O [Ro-63-3300] | 28 |
| O=C(O)[C@H]1CCCN1C(=O)Cc1cccc(CC(=O)N2CCC[C@@H]2C(=O)O)c1 [Ro-64-2668] | 28 |
| O=C(O)[C@H]1CCCN1C(=O)COc1ccc(OCC(=O)N2CCC[C@@H]2C(=O)O)cc1 [Ro-64-2856] | 0 |
| NCCOP(=O)(O)O [Phosphoethanolamine, reference compound] | 7 |

====

Biological target: SAP (Homo sapiens, UniProt P02743)
Test: Inhibition of binding of 125I radiolabelled SAP to native long chromatin immobilized in microtitre plates
Parameters: 5 μl of radiolabelled SAP in TN; from tissue
Settings: compound 20 μM; read-out: Percent inhibition of binding of radiolabelled SAP to immobilized native long chromatin

| Compound | Study Target | inhibition at 20 µM [%] |
| --- | --- | --- |
| C[C@H](CSSC[C@@H](C)C(=O)N1CCC[C@@H]1C(=O)O)C(=O)N1CCC[C@@H]1C(=O)O [Ro-63-3300] | SAP (Homo sapiens, UniProt P02743) | 69 |
| O=C(O)[C@H]1CCCN1C(=O)Cc1cc(O)c(CC(=O)N2CCC[C@@H]2C(=O)O)cc1O [Ro-64-4383] | SAP (Homo sapiens, UniProt P02743) | 78 |
| C[N+](C)(C)CCOP(=O)([O-])O [Phosphocholine, reference compound] | SAP (Homo sapiens, UniProt P02743) | 0 |
| COc1cccc(OCC(=O)N2CCC[C@@H]2C(=O)O)c1OCC(=O)N1CCC[C@@H]1C(=O)O [Ro-64-2845] | SAP (Homo sapiens, UniProt P02743) | 75 |
| O=C(O)[C@H]1CCCN1C(=O)COc1ccccc1OCC(=O)N1CCC[C@@H]1C(=O)O [Ro-63-8593] | SAP (Homo sapiens, UniProt P02743) | 77 |

====

Biological target: SAP (Homo sapiens, UniProt P02743)
Experiment: Inhibition of binding of 125I radiolabelled SAP to native long chromatin immobilized in microtitre plates
Design: 5 μl of radiolabelled SAP in TN; from tissue
Conditions: compound 200 nM; read-out: Percent inhibition of binding of radiolabelled SAP to immobilized native long chromatin

| Compound | Study Target | inhibition at 0.2 µM (%) |
| --- | --- | --- |
| O=C(O)[C@H]1CCCN1C(=O)Cc1cccc(CC(=O)N2CCC[C@@H]2C(=O)O)c1 | SAP (Homo sapiens, UniProt P02743) | 0 |
| O=C(O)[C@H]1CCCN1C(=O)Cc1ccc(CC(=O)N2CCC[C@@H]2C(=O)O)cc1 | SAP (Homo sapiens, UniProt P02743) | 4 |
| O=C(O)[C@H]1CCCN1C(=O)COc1ccccc1OCC(=O)N1CCC[C@@H]1C(=O)O | SAP (Homo sapiens, UniProt P02743) | 7 |
| O=C(O)[C@H]1CCCN1C(=O)Cc1ccc(CC(=O)N2CCC[C@@H]2C(=O)O)c2ccccc12 | SAP (Homo sapiens, UniProt P02743) | 15 |
| NCCOP(=O)(O)O [Phosphoethanolamine, reference compound] | SAP (Homo sapiens, UniProt P02743) | 3 |

====

Biological target: SAP (Homo sapiens, UniProt P02743)
Test: Inhibition of binding of 125I radiolabelled SAP to Neisseria meningitidis immobilized in microtitre plates
Design: 5 μl of radiolabelled SAP in TN; from tissue
Conditions: compound 2 mM; read-out: Percent inhibition of binding of radiolabelled SAP to immobilized Neisseria meningitidis
Experimental: A suspension of heat killed Neisseria meningitidis at 1×10^8 organisms per ml in PBS was dispensed to polystyrene microtitre plates at 50 μl volumes per well, and left overnight at 4° C. […] All wells were then incubated at room temperature for 2 h before being washed three times with 200 μl volumes of TCBT, allowed to dry for 1 h at room temperature, and bound radiolabelled SAP was then counted. […]
The entries below are paired with their reported inhibition at 2000 µM.

| Compound | Study Target | Readout Units | inhibition at 2000 µM |
| --- | --- | --- | --- |
| O=C(O)[C@H]1CCCN1C(=O)COc1ccc(OCC(=O)N2CCC[C@@H]2C(=O)O)cc1 [Ro-64-2856] | SAP (Homo sapiens, UniProt P02743) | % | 100 |
| O=C(O)[C@H]1CCCN1C(=O)COc1cccc2c(OCC(=O)N3CCC[C@@H]3C(=O)O)cccc12 [Ro-64-5445] | SAP (Homo sapiens, UniProt P02743) | % | 100 |
| C[C@H](CSSC[C@@H](C)C(=O)N1CCC[C@@H]1C(=O)O)C(=O)N1CCC[C@@H]1C(=O)O [Ro-63-3300] | SAP (Homo sapiens, UniProt P02743) | % | 100 |
| C[N+](C)(C)CCOP(=O)([O-])O [Phosphocholine, reference compound] | SAP (Homo sapiens, UniProt P02743) | % | 24 |
| O=C(O)[C@H]1CCCN1C(=O)Cc1cc(O)c(CC(=O)N2CCC[C@@H]2C(=O)O)cc1O [Ro-64-4383] | SAP (Homo sapiens, UniProt P02743) | % | 100 |
| O=C(O)[C@H]1CCCN1C(=O)Cc1cccc(CC(=O)N2CCC[C@@H]2C(=O)O)c1 [Ro-64-2668] | SAP (Homo sapiens, UniProt P02743) | % | 100 |
| O=C(O)[C@H]1CCCN1C(=O)Cc1ccc(CC(=O)N2CCC[C@@H]2C(=O)O)cc1 [Ro-63-7777] | SAP (Homo sapiens, UniProt P02743) | % | 100 |
| O=C(O)[C@H]1CCCN1C(=O)CCCCC(=O)N1CCC[C@@H]1C(=O)O [Ro-63-8695] | SAP (Homo sapiens, UniProt P02743) | % | 100 |
| NCCOP(=O)(O)O [Phosphoethanolamine, reference compound] | SAP (Homo sapiens, UniProt P02743) | % | 95 |
| O=C(O)[C@H]1CCCN1C(=O)COc1ccccc1OCC(=O)N1CCC[C@@H]1C(=O)O [Ro-63-8593] | SAP (Homo sapiens, UniProt P02743) | % | 100 |
